Data provenance is patent US20090304692A1.

# Assay system: PI3K-α (Homo sapiens, UniProt P42336)
# Sequence (P42336 whole entry, species assumed): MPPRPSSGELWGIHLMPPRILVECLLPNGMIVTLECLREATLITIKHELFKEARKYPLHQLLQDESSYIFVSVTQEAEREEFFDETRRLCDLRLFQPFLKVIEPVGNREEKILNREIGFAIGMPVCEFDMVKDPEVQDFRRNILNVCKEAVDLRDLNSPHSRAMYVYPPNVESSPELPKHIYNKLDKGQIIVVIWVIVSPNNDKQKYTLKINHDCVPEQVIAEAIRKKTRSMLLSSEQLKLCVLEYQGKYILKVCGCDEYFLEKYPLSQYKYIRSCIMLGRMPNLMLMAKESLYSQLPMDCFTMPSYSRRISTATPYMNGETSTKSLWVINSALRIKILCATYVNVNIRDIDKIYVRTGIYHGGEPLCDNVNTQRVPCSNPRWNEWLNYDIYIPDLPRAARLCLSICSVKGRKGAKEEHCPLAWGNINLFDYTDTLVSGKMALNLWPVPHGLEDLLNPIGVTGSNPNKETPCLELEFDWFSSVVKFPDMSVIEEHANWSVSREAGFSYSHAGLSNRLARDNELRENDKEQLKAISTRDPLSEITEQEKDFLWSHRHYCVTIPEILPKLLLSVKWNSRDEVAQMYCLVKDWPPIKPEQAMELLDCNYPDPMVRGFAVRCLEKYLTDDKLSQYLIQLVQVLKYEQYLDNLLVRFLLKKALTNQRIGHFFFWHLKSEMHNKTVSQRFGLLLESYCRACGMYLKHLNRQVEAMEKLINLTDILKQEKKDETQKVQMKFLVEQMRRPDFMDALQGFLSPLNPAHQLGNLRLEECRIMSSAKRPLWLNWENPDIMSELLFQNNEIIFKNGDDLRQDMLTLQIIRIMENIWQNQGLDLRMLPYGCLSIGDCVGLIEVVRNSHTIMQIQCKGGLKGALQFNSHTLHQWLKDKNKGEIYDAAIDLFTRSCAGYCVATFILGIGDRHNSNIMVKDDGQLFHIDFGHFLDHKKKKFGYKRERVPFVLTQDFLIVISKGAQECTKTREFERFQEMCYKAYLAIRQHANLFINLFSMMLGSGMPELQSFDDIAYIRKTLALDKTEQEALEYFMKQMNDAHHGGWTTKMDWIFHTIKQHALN
# Sequence (P27986 whole entry partner, species assumed): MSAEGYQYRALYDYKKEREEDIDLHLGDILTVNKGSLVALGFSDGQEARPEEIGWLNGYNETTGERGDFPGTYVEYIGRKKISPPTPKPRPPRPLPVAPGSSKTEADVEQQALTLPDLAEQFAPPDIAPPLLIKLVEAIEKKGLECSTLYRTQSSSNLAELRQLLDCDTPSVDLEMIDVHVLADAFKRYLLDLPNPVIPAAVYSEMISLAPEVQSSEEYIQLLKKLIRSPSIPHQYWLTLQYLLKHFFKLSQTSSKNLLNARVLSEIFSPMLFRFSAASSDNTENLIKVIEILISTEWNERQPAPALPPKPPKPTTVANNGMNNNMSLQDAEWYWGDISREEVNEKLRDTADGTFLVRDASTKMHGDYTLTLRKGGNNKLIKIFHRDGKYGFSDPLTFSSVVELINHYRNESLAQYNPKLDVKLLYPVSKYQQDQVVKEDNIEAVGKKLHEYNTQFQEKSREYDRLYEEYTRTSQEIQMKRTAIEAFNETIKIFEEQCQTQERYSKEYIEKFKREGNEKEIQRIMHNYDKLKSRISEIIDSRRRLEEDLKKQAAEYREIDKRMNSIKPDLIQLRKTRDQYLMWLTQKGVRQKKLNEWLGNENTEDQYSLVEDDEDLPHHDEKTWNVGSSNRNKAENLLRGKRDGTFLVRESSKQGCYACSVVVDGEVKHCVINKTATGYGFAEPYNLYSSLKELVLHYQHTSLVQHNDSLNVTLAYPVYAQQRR
# Experiment summary: PI3K-alpha fluorescence polarization assay
# Experimental conditions: read-out: IC50 PI3Kα
pIC50: −log10 of the molar value.
Parameter: pIC50. Scope: all listed entries.
Parameter measured: pIC50

| Molecule | Parameter measured | Limit qualifier | Data value |
| --- | --- | --- | --- |
| CC(C)c1nc(-c2ccc(NC(=O)Nc3ccc(C(=O)N4CCN(C)CC4)cc3)cc2)nc(N2CCOCC2)n1 | pIC50 | = | 8.70 |
| CN1CCN(C(=O)c2ccc(NC(=O)Nc3ccc(-c4nc(N5CCOCC5)nc(N5C6CCCC5COC6)n4)cc3)cc2)CC1 | pIC50 | = | 8.48 |
| O=C(Nc1ccc(C(=O)NCCc2ccccn2)cc1)Nc1ccc(-c2nc(N3CCOCC3)nc(N3C4COCC3COC4)n2)cc1 | pIC50 | = | 7.94 |
| O=C(Nc1ccc(C(=O)NCCN2CCCC2)cc1)Nc1ccc(-c2nc(C3CCOCC3)nc(N3CCOCC3)n2)cc1 | pIC50 | > | 8.62 |
| O=C(Nc1ccncc1)Nc1ccc(-c2nc(N3CCOCC3)nc(N3C4COCC3[C@H](OCc3ccccc3)C4)n2)cc1 (stereo partly shown) | pIC50 | = | 8.03 |
| Cc1cc(NC(=O)Nc2ccc(-c3nc(N4CCOCC4)nc(N4CCC5(CC4)OCCO5)n3)cc2)ccn1 | pIC50 | = | 7.82 |
| O=C(Nc1ccncc1)Nc1ccc(-c2nc(N3CCC(NCCO)CC3)nc(N3CC4CCC(C3)O4)n2)cc1 | pIC50 | = | 6.12 |

---

# Assay system: PI3K-γ (Homo sapiens)
# Sequence (P48736 whole entry, species assumed): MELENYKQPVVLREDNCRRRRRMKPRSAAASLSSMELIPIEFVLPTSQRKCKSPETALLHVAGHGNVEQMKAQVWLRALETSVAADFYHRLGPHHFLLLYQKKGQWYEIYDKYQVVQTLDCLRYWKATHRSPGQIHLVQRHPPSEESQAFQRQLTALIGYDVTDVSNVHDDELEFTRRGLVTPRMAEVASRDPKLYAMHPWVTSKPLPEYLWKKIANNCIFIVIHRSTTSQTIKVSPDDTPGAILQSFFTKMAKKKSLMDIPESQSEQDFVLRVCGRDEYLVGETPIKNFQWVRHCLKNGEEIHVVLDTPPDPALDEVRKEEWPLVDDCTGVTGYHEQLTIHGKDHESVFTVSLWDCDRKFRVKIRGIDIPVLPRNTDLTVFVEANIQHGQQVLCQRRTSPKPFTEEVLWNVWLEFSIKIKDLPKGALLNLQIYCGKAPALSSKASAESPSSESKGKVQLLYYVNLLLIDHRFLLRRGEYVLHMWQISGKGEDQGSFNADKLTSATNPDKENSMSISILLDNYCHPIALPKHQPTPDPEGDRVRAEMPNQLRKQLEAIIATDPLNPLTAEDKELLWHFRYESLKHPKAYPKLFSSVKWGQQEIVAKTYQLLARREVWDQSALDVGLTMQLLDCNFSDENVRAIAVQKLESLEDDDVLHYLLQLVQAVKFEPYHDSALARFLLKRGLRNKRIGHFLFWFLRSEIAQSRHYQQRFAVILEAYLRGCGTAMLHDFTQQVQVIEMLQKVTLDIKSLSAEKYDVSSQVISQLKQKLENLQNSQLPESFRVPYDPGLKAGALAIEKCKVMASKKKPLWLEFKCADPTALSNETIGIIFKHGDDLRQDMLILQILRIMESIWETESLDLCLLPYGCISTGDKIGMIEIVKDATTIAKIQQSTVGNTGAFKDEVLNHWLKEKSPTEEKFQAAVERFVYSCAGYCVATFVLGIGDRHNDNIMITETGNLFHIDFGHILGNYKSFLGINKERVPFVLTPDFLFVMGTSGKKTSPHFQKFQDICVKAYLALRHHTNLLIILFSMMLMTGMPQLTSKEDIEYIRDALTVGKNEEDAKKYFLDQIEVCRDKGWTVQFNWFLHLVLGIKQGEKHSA
# Experiment summary: PI3K-gamma fluorescence polarization assay
# Experimental conditions: read-out: IC50 PI3Kγ; listed as 532

| Given smiles | Assay system | IC50 [nM] |
| --- | --- | --- |
| Cc1ccc(-c2nc(-c3ccc(NC(=O)Nc4ccc(C(=O)N(C)CCN(C)C)cc4)cc3)nc(N3CCOCC3)n2)cc1 | PI3K-γ (Homo sapiens) | 76.5 |

---

Parameter: IC50. Scope: all listed entries.
# Assay system: PI3K-α (Homo sapiens, UniProt P42336)
# Experiment summary: PI3K-alpha fluorescence polarization assay
# Experimental conditions: read-out: IC50 PI3Kα

| Given smiles | Units | IC50 |
| --- | --- | --- |
| CCN1CCN(C(=O)c2ccc(NC(=O)Nc3ccc(-c4nc(N5CCOCC5)nc(N5C6CCC5COC6)n4)cc3)cc2)CC1 | nM | 3 |
| CN1CCN(C(=O)c2ccc(NC(=O)Nc3ccc(-c4nc(N5CCOCC5)nc(N5C6COCC5COC6)n4)cc3)cc2)CC1 | nM | 2.1 |
| CN(C)C(=O)c1ccc(NC(=O)Nc2ccc(-c3nc(C4CCOCC4)nc(N4C5CCC4COC5)n3)cc2)cc1 | nM | 113 |
| C[C@H]1COCCN1c1nc(-c2ccc(NC(=O)Nc3ccc(C(=O)N4CC[C@H](N(C)C)C4)cc3)cc2)nc(N2C3CCC2COC3)n1 | nM | 4.8 |
| CN(C)CCNC(=O)c1ccc(NC(=O)Nc2ccc(-c3nc(N4CCOCC4)nc(N4C5CCCC4COC5)n3)cc2)cc1 | nM | 2.6 |
| CN(C)C(=O)c1ccc(NC(=O)Nc2ccc(-c3nc(N4CCOCC4)nc(N4C5CCC4COC5)n3)cc2)cc1 | nM | 4 |
| Cc1ccc(-c2nc(-c3ccc(NC(=O)Nc4ccc(C(=O)N(C)CCN(C)C)cc4)cc3)nc(N3CCOCC3)n2)cc1 | nM | 3 |
